- systemUnderTest: COX-2 (Mus musculus, UniProt Q05769)
- Construct: endogenous in cells; host or cells: RAW264.7 murine macrophages, stimulated with LPS and IFN-g
- procedureDetails: Cell-based COX-2 assay (PGE2 in LPS/IFN-g stimulated RAW264.7 cells)
- assayConditions: RAW264.7 murine macrophages, 1 μg/ml LPS and 10 U/ml IFN-g for 7 h, PGE2 readout
Hi there, I'd appreciate the recorded IC50 for every entry that follows.
One number for each entry, in µM.

# annotated cases, reported IC50 shown
CCOC(=O)C1C[S][Re]23(=[O])[S]CC(C(=O)NCCCCCCNC(=O)Cc4c(C)n(C(=O)c5ccc(Cl)cc5)c5ccc(OC)cc45)[N]2CC[N]13 (stereo not drawn): 1.5
COc1ccc2c(c1)c(CC(=O)NCCCCCCNC(=O)C[N]1C(=O)C[N]3C(=O)C[N]4C(=O)C[S][Re]143=[O])c(C)n2C(=O)c1ccc(Cl)cc1: 12.7
COc1ccc2c(c1)c(CC(=O)NCCOCCNC(=O)[c-]1cccc1)c(C)n2C(=O)c1ccc(Cl)cc1.[C-]#[O+].[C-]#[O+].[C-]#[O+].[Re+]: 1.5
COc1ccc2c(c1)c(CC(=O)NCCC(C)(C)CC[N+]13CC[S][Re-]14(=[O])[S]CC[N]4CC3)c(C)n2C(=O)c1ccc(Cl)cc1 (stereo not drawn): 0.5
COc1ccc2c(c1)c(CC(=O)NCCCCCC[N+]13CC[S][Re-]14(=[O])[S]CC[N]4CC3)c(C)n2C(=O)c1ccc(Cl)cc1 (stereo not drawn): 0.2

Moving on to the next molecule.
Ask: Look up and report measured IC50 for this entry: `COc1ccc2c(c1)c(CC(=O)NCCCCC(C)(C)NC(=O)c1ccc[cH-]1)c(C)n2C(=O)c1ccc(Cl)cc1.[C-]#[O+].[C-]#[O+].[C-]#[O+].[Re+]`
Reply: 0.4

###

- systemUnderTest: COX-2 (Mus musculus, UniProt Q05769)
- Construct: endogenous in cells; host or cells: RAW264.7 murine macrophages, stimulated with LPS and IFN-g
- Sequence (Q05769 18-604): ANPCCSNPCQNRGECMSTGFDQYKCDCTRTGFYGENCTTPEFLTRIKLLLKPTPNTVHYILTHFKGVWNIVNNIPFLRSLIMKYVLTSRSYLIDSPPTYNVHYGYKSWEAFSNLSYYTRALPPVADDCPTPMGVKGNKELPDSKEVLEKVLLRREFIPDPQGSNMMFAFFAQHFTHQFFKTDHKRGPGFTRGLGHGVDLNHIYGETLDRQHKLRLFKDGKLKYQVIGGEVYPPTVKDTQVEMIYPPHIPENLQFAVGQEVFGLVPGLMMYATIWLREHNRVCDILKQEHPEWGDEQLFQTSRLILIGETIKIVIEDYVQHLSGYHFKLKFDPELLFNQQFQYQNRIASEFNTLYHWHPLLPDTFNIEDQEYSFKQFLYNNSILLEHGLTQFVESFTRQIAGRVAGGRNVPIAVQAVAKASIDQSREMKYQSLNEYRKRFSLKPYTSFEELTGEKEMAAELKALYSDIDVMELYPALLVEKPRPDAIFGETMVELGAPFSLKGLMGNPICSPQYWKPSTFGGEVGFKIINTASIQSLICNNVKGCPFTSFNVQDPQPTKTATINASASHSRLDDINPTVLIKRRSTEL
- procedureDetails: Cell-based COX-2 assay (PGE2 in LPS/IFN-g stimulated RAW264.7 cells)
- assayConditions: RAW264.7 murine macrophages, 1 μg/ml LPS and 10 U/ml IFN-g for 7 h, PGE2 readout
Output yes for records whose IC50 is lower than 0.3 µM, no for records at or above 0.3 µM.

COc1ccc2c(c1)c(CCNC(=O)CCCCC[N+]13CC[S][Re-]14(=[O])[S]CC[N]4C(=O)C3)c(C)n2C(=O)c1ccc(Cl)cc1 (stereo not shown) [Compound 359]: yes
COc1ccc2c(c1)c(CC(=O)NCCCCCCC[N+]13CC[S][Re-]14(=[O])[S]CC[N]4CC3)c(C)n2C(=O)c1ccc(Cl)cc1 (stereo not shown) [Compound 305]: yes
COc1ccc2c(c1)c(CC(=O)NCCCNCCC[N+]13CC[S][Re-]14(=[O])[S]CC[N]4C(=O)C3)c(C)n2C(=O)c1ccc(Cl)cc1 (stereo not shown) [Compound 320]: no
COc1ccc2c(c1)c(CC(=O)NCCCC[N+]13CC[S][Re-]14(=[O])[S]CC[N]4C(=O)C3)c(C)n2C(=O)c1ccc(Cl)cc1 (stereo not shown) [Compound 261]: no
COc1ccc2c(c1)c(CC(=O)NCCOCC[N+]13CC[S][Re-]14(=[O])[S]CC[N]4C(=O)C3)c(C)n2C(=O)c1ccc(Cl)cc1 (stereo not shown) [Compound 262]: no
COc1ccc2c(c1)c(CC(=O)NCCCOCCC[N+]13CC[S][Re-]14(=[O])[S]CC[N]4CC3)c(C)n2C(=O)c1ccc(Cl)cc1 (stereo not shown) [Compound 306]: yes

Ask: Find out if reported IC50 for COc1ccc2c(c1)c(CC(=O)NCCCCCCNC(=O)C1C[S][Re]34(=[O])[S]CC(C(=O)OC(C)C)[N]3CC[N]14)c(C)n2C(=O)c1ccc(Cl)cc1 (stereo not shown) [Compound 185] is less than 0.3 µM
Reply: no

Ask: Find out if reported IC50 for COc1ccc2c(c1)c(CC(=O)NCCCCCNC(=O)c1ccc[cH-]1)c(C)n2C(=O)c1ccc(Cl)cc1.[C-]#[O+].[C-]#[O+].[C-]#[O+].[Re+] [Compound 308] is less than 0.3 µM
Reply: yes

Ask: Find out if reported IC50 for NS(=O)(=O)c1ccc(-n2nc(CNC(=O)CCCCC[N+]34CC[S][Re-]35(=[O])[S]CC[N]5C(=O)C4)cc2-c2ccc(F)cc2)cc1 (stereo not shown) [Compound 367] is less than 0.3 µM
Reply: no

Ask: Find out if reported IC50 for COc1ccc2c(c1)c(CC(=O)NCCCCCCCNC(=O)[c-]1cccc1)c(C)n2C(=O)c1ccc(Cl)cc1.[C-]#[O+].[C-]#[O+].[C-]#[O+].[Re+] [Compound 246] is less than 0.3 µM
Reply: yes

Ask: Find out if reported IC50 for CCOC(=O)C1C[S][Re]23(=[O])[S]CC(C(=O)NCCOCCOCCNC(=O)Cc4c(C)n(C(=O)c5ccc(Cl)cc5)c5ccc(OC)cc45)[N]2CC[N]13 (stereo not shown) [Compound 178] is less than 0.3 µM
Reply: no

Ask: Find out if reported IC50 for COc1ccc2c(c1)c(CC(=O)NCCOCCOCC[N+]13CC[S][Re-]14(=[O])[S]CC[N]4C(=O)C3)c(C)n2C(=O)c1ccc(Cl)cc1 (stereo not shown) [Compound 269] is less than 0.3 µM
Reply: no

###

- systemUnderTest: human COX-2 (Homo sapiens, UniProt P35354)
- Construct: purchased Cayman Chemical Co., Ann Arbor, Mich., USA 701080
- Sequence (P35354 18-604): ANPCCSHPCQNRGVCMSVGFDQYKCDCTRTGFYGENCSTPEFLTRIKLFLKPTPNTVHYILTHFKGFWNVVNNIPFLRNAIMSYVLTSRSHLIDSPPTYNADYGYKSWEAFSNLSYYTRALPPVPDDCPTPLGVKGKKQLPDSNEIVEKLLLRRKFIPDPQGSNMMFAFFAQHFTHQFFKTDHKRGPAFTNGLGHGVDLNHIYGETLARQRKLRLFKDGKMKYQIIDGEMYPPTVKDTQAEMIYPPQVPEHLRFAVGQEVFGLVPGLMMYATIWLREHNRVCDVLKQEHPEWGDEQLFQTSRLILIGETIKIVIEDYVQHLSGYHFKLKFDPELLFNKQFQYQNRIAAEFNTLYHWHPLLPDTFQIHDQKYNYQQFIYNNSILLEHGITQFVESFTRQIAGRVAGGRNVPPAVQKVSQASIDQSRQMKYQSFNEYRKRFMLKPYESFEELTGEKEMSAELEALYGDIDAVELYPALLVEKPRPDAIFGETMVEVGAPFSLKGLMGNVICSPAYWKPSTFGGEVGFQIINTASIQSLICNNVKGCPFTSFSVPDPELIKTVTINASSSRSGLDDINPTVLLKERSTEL
- procedureDetails: COX-2 enzyme assay (EIA kit, PGF2α readout)
- Format: biochemical
- assayConditions: human COX-2 enzyme, EIA; 15 min pre-incubation at 37° C.; read-out: COX-2 IC50 (μM) enzyme
Output Y for records whose IC50 is lower than 0.6 µM, N for records at or above 0.6 µM.

COc1ccc2c(c1)c(CC(=O)NCCCCCNC(=O)c1ccc[cH-]1)c(C)n2C(=O)c1ccc(Cl)cc1.[C-]#[O+].[C-]#[O+].[C-]#[O+].[Re+]: N
COc1ccc2c(c1)c(CC(=O)NCCC(C)(C)CC[N+]13CC[S][Re-]14(=[O])[S]CC[N]4CC3)c(C)n2C(=O)c1ccc(Cl)cc1 (stereo not drawn): N
COc1ccc2c(c1)c(CC(=O)NCCCOCCC[N+]13CC[S][Re-]14(=[O])[S]CC[N]4CC3)c(C)n2C(=O)c1ccc(Cl)cc1 (stereo not drawn): N
COc1ccc2c(c1)c(CC(=O)NCCCCCCNC(=O)[c-]1cccc1)c(C)n2C(=O)c1ccc(Cl)cc1.[C-]#[O+].[C-]#[O+].[C-]#[O+].[Re+]: Y

Ask: Find out if reported IC50 for COc1ccc2c(c1)c(CC(=O)NCCC=CCC[N+]13CC[S][Re-]14(=[O])[S]CC[N]4C(=O)C3)c(C)n2C(=O)c1ccc(Cl)cc1 (stereo not drawn) is less than 0.6 µM
Reply: N

###

- systemUnderTest: human COX-2 (Homo sapiens)
- Construct: purchased Cayman Chemical Co., Ann Arbor, Mich., USA 701080
- procedureDetails: COX-2 enzyme assay (EIA kit, PGF2α readout)
- Format: biochemical
- assayConditions: human COX-2 enzyme, EIA; 15 min pre-incubation at 37° C.; read-out: COX-2 IC50 (μM) enzyme
measureName: IC50 (µM)
Answers are plain numbers, in µM.

Please supply IC50 for each of the following items, keeping them in order.
1. CCOC(=O)C1C[S][Re]23(=[O])[S]CC(C(=O)NCCCCCCCCNC(=O)Cc4c(C)n(C(=O)c5ccc(Cl)cc5)c5ccc(OC)cc45)[N]2CC[N]13 (stereo not drawn)
2. COc1ccc2c(c1)c(CC(=O)N[C@H](C)CCCCC[N+]13CC[S][Re-]14(=[O])[S]CC[N]4C(=O)C3)c(C)n2C(=O)c1ccc(Cl)cc1 (stereo partly drawn)
3. COc1ccc2c(c1)c(CC(=O)NCCCC[N+]13CC[S][Re-]14(=[O])[S]CC[N]4C(=O)C3)c(C)n2C(=O)c1ccc(Cl)cc1 (stereo not drawn)

Reply:
1. 0.4
2. 0.6
3. 0.8
